target.entity: Caspase-1 (Mus musculus)
experiment.description: Inhibitory activity against murine caspase-1
parameter: k3/Ki (M⁻¹ s⁻¹)

• CC(C)[C@H](NC(=O)COc1cccc2ccccc12)C(=O)N[C@@H](CC(=O)O)C(=O)COc1ccccc1F = 6020
• CC(C)[C@H](NC(=O)COc1cccc2ccccc12)C(=O)N[C@@H](CC(=O)O)C(=O)COc1ccc(OC(F)(F)F)cc1 = 2360
• CC(C)[C@H](NC(=O)COc1cccc2ccccc12)C(=O)N[C@@H](CC(=O)O)C(=O)COc1c(F)c(F)cc(F)c1F = 77500
• CC(C)[C@H](NC(=O)COc1cccc2ccccc12)C(=O)N[C@@H](CC(=O)O)C(=O)COc1cc(C(F)(F)F)cc(C(F)(F)F)c1 = 783
• CC(C)[C@H](NC(=O)COc1cccc2ccccc12)C(=O)N[C@@H](CC(=O)O)C(=O)COc1cccc(OC(F)(F)F)c1 = 1410
• CC(C)[C@H](NC(=O)COc1cccc2ccccc12)C(=O)N[C@@H](CC(=O)O)C(=O)COc1c(F)ccc(F)c1F = 47100
• CC(C)[C@H](NC(=O)COc1cccc2ccccc12)C(=O)N[C@@H](CC(=O)O)C(=O)COc1ccc(Oc2ccc(C(F)(F)F)cc2)cc1 = 1540

###

Test system: Jurkat
experiment.description: Cellular assay in a Fas-induced model of apoptosis in Jurkat cells
Assay type: functional, cell-based
experimental.setup: Homo sapiens
We begin with a simple list: items and their reported IC50.
parameter: IC50 (µM)

* CC(C)[C@H](NC(=O)COc1cccc2ccccc12)C(=O)N[C@@H](CC(=O)O)C(=O)COc1c(F)c(F)c(-c2c(F)c(F)c(F)c(F)c2F)c(F)c1F | 20
* CC(C)[C@H](NC(=O)COc1cccc2ccccc12)C(=O)N[C@@H](CC(=O)O)C(=O)COC(=O)c1c(Cl)cccc1Cl | 10.6
* CC(C)[C@H](NC(=O)COc1cccc2ccccc12)C(=O)N[C@@H](CC(=O)O)C(=O)COc1ccc(F)cc1F | 33.2
* CC(C)[C@H](NC(=O)COc1cccc2ccccc12)C(=O)N[C@@H](CC(=O)O)C(=O)COc1ccc(Oc2ccccc2)cc1 | 12.7
* CC(C)[C@H](NC(=O)COc1cccc2ccccc12)C(=O)N[C@@H](CC(=O)O)C(=O)COc1c(F)c(F)cc(F)c1F | 4.5
* CC(C)[C@H](NC(=O)COc1cccc2ccccc12)C(=O)N[C@@H](CC(=O)O)C(=O)COc1ccc(OC(F)(F)F)cc1 | 29.1
* CC(C)[C@H](NC(=O)COc1cccc2ccccc12)C(=O)N[C@@H](CC(=O)O)C(=O)COc1ccc([N+](=O)[O-])cc1F | 30.3

###

We begin with a simple list: items and their reported k3/Ki.
target.entity: Caspase-1 (Mus musculus) (UniProt P29452)
Sequence (P29452 119-296 limits assumed): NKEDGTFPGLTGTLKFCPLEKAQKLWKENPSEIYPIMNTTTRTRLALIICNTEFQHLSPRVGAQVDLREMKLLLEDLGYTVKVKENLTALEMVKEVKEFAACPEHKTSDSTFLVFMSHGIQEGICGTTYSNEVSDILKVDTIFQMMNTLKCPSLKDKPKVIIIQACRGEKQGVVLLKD
Sequence (P29452 315-402 limits assumed): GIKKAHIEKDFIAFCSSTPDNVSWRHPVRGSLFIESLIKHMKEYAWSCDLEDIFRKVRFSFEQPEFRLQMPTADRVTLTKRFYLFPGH
experiment.description: Inhibitory activity against murine caspase-1
parameter: k3/Ki

- CC(C)[C@H](NC(=O)COc1cccc2ccccc12)C(=O)N[C@@H](CC(=O)O)C(=O)COc1cccc2ccccc12: 354000 M⁻¹ s⁻¹
- CC(C)[C@H](NC(=O)COc1cccc2ccccc12)C(=O)N[C@@H](CC(=O)O)C(=O)COc1c(Cl)cccc1Cl: 25300 M⁻¹ s⁻¹
- CC(C)[C@H](NC(=O)COc1cccc2ccccc12)C(=O)N[C@@H](CC(=O)O)C(=O)COc1ccc([N+](=O)[O-])cc1: 6130 M⁻¹ s⁻¹
- CC(C)[C@H](NC(=O)COc1cccc2ccccc12)C(=O)N[C@@H](CC(=O)O)C(=O)COc1cccc(C(F)(F)F)c1F: 7220 M⁻¹ s⁻¹
- CC(C)[C@H](NC(=O)COc1cccc2ccccc12)C(=O)N[C@@H](CC(=O)O)C(=O)COc1ccccc1: 3630 M⁻¹ s⁻¹
- CC(C)[C@H](NC(=O)COc1cccc2ccccc12)C(=O)N[C@@H](CC(=O)O)C(=O)COc1ccc(Oc2ccccc2)cc1: 1900 M⁻¹ s⁻¹
- CC(C)[C@H](NC(=O)COc1cccc2ccccc12)C(=O)N[C@@H](CC(=O)O)C(=O)COc1ccc2oc(=O)sc2c1: 2240 M⁻¹ s⁻¹

Each recorded value in this set is attributed to ChEMBL document CHEMBL1136305.
